Target: T1, Mint1 PTB + APP (750-769) (human, UniProt Q02410 448-623)
T1 construct: human Mint1 PTB domain, residues 448-623, as m35; human amyloid precursor protein residues 750-769, as m36; source: mixed from purified m35 and the synthetic peptide m36
T1 sequence (Q02410 448-623, chain 1 of 2): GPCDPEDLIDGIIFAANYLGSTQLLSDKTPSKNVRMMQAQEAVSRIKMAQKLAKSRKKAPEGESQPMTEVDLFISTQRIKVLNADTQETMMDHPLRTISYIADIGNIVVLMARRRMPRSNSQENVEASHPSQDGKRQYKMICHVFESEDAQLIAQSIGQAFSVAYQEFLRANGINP
T1 sequence (peptide, as listed by the source, chain 2 of 2): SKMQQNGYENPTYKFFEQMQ
Assay: ITC; as a5, competition experiment with the other peptide (APP 750-769 or TJAP1 9-22) present with Mint1 PTB in the cell
Conditions: both partners purified
VALUE TYPE: pKd
Formally, pKd is defined as -log10 of the concentration c, with c in mol/L.

pKd in this record for KPYRKAPPEHRELR (human tight junction-associated protein 1 residues 9-22; also called TJAP1 peptide; PILT; source: synthetic peptide (solid phase synthesis in-house, reverse-phase HPLC)) [TJAP1 (9-22) peptide] : 4.53

Every entry's value here was drawn from paper PMC10820826.
